Hi there, I'd appreciate the recorded Fold change in RNA expression between the ON state and the OFF state for every entry that follows.
- Tested on: Renilla luciferase RNA
- ASSAY_REMARKS: Barcoded aptazyme variant library screen: un-cleaved Renilla luciferase RNA by barcode read counts, HEK293-T cells
- Assay type: cell-based
- SETTINGS: un-cleaved Renilla luciferase RNA by barcode read counts; with 1 mM theophylline (ON) over without theophylline (OFF); HEK293-T cells; triplicate

RA368 (nucleic acid, expressed or natural sequence) DNA: GCGCGTCCTGGATTCGCGGAAACGCGTACATCCAGCTGACGAGTCCCGAGAATACCAGCATCGTCTTGATGCCCTTGGAAGTCTCGCAAATAGGACGAAACGCGC = 0.8

// switching to the query molecule
QUERY: Reported Fold change in RNA expression between the ON state and the OFF state, molecule RA472 (nucleic acid, expressed or natural sequence) DNA: GCGCGTCCTGGATTCGCGGAAACGCGTACATCCAGCTGACGAGTCCCAAATAGAGAATACCAGCATCGTCTTGATGCCCTTGGAAGTCTCGGACGAAACGCGC : ____
RESULT: 0.3
